Value source: patent US20250236617A1

Tested on: primary human T-cells
PROTOCOL_TEXT: IL2 secretion measurements in CD3-stimulated T-cells
Type: cell-based
SETUP_CONDITIONS: Homo sapiens, T-cell; CD3 condition, IL2 secretion after 24 hours; read-out: Tcell IL2 CD3 EC50
OUTCOME_MEASURE: EC50 (µM)

Answered examples (2):
CC(C)(C)c1ccnc(-c2cc3c(cc2F)S(=O)(=O)C[C@H](N)C(=O)N3Cc2ccc(Cl)cc2)c1 7.38
N[C@H]1CS(=O)(=O)c2cc(F)c(-c3cncc(N4CCOCC4)c3)cc2N(Cc2ccc(-c3noc(C(F)(F)F)n3)cc2)C1=O 6.78

a. CC(C)(C)c1cc(-c2cc3c(cc2F)S(=O)(=O)C[C@H](N)C(=O)N3Cc2ccc(Cl)cc2)ccn1
b. N[C@H]1CS(=O)(=O)c2cc(F)c(-c3nncc(N4CCC(F)(F)CC4)n3)cc2N(Cc2ccc(Cl)cc2)C1=O
QUERY: Field: entry with larger EC50 (options a / b ). Identify your selection by its label.
RESULT: a
